system: TK-10 renal; assay: NCI tumour cell line growth inhibition, 48 h
recorded_metric: GI50

Example molecules with recorded GI50:
Briefly, GI50 measured for CC(C)c1cccc(O)c(=O)c1 : 17.3 mg/L

So for CC(C)=CC(=O)N[C@H]1CC[C@]2(C)C3CC[C@]4(C)C(C(C)N(C)C)=CCC4C3CCC2[C@H]1O (stereo partly drawn) , the logged GI50 turned out to be 11 µM

Here is the next item to consider.
The measured GI50 associated with O=C1C(=O)c2ccccc2C(O)=C1CCCc1ccc(C2CCCCC2)cc1 reads 23.4 µM

====

test system: NCI/ADR-RES ovarian; assay: NCI tumour cell line growth inhibition, 48 h
Listing of recorded TGI by entry.

Example entries begin here.
Recorded TGI for COC(=O)C(Cc1c[nH]c2ccccc12)NP(=O)(O)OCC1OC(n2cc(Br)c(=O)[nH]c2=O)CC1O (stereo not given) on NCI/ADR-RES ovarian was > 100 µM

Tested on NCI/ADR-RES ovarian, the item C=C(C)[C@H]1C2=CC(C)=C(O2)[C@@H](O)[C@H](C(=C)C)CCC2=C[C@H]1OC2=O showed TGI equal to > 100 µM

Field TGI (NCI/ADR-RES ovarian), entry Nn1c(=O)[nH]c2ncn(Cc3ccccc3)c2c1=O : > 100 µM

Item: COC(=O)C1=C(C(=O)OC)C(N(C)C)C(C(=O)OC)=C(C(=O)OC)S1 | System: NCI/ADR-RES ovarian | TGI: > 100 µM

Let me check: C[C@H]1COCCN1c1cc(C2(S(=O)(=O)C3CC3)CC2)nc(-c2ccc(NC(=S)NCCO)cc2)n1 , system NCI/ADR-RES ovarian, measured TGI is 47.8 µM

The reported NCI/ADR-RES ovarian TGI of ClCc1ccccc1Cn1cnc2c(Cl)ncnc21 is 4.72 µM

Next:
For the compound CCCCCCCC/C=C1\CCC(CN2CCOCC2)C1=O (stereo not given) , the measured TGI on NCI/ADR-RES ovarian was 14.4 µM

# lookup: O=c1c2cnccc2cc2c3ccccc3ccn12 on NCI/ADR-RES ovarian, TGI = > 100 µM

Test item COc1ccc(/C=C2\SC(=Nc3ccccc3)NC2=O)cc1 ; NCI/ADR-RES ovarian; reported TGI was > 100 µM

The reported TGI value, NCI/ADR-RES ovarian, for CCOC1NC(=O)Oc2cc3ccccc3cc21 (stereo not given) reads > 100 µM

Value sought: TGI, system NCI/ADR-RES ovarian, item Cc1cc(OCCOCCC(F)(F)P(=O)(O)O)ccc1CCc1cnc2c(N)nc3cc(CCC(=O)O)ccc3c2c1 . Result: > 100 µM

Measured on NCI/ADR-RES ovarian, Cc1nc2c(cc1OCc1ccccc1)C(=O)C1=C(C2=O)C2OC(=O)CC2OC1(C)C (stereo not given) has a documented TGI of 28.9 µM

Readout TGI for CC(C)C(=O)c1c(C(F)(F)F)n([O-])c2cc(F)c(F)cc2[n+]1=O , test system NCI/ADR-RES ovarian, was 0.545 µM

TGI value, target or system NCI/ADR-RES ovarian, for CC(C)c1cccc(O)c(=O)c1 : > 75 µg/mL

Item CC(=O)O[C@H]1C[C@@H](OC(C)=O)[C@@](C)(O)[C@@H]2[C@@H](OC(C)=O)[C@@]3(O)[C@H](/C=C(/CO)[C@H]4O[C@H]4[C@@H](OC(C)=O)[C@@]12C)OC(=O)[C@@H]3C ; assay system NCI/ADR-RES ovarian; TGI reported as > 25 µM

The reported NCI/ADR-RES ovarian TGI of CCCCCCCC(=O)SCC/C=C/[C@@H]1CC(=O)NCc2nc(cs2)C2=N[C@@](C)(CS2)C(=O)N[C@@H](C(C)C)C(=O)N1 is > 100 µM
